System: Fusobacteriumnecrophroum ATCC 27852 LRP 210
Test: Bacteriostatic power in solid medium (MIC)
Format: cell-based
Settings: read-out: Minimum inhibiting concentration
Text: the bacteriostatic power, expressed as the minimum inhibiting concentration (MIC) against both aerobic and anaerobic, Gram positive and Gram negative, bacterial stocks: the related results are reported in the tables 2 and 3.
# MIC values compiled below
Dear colleague, please return just the value in µg/mL, with no unit written.

Below, each entry is followed by its recorded MIC result.
Compound | Units text | MIC
CC[C@H]1OC(=O)[C@H](C)[C@@H](O[C@H]2C[C@@](C)(OC)[C@@H](O)[C@H](C)O2)[C@H](C)[C@@H](O[C@@H]2O[C@H](C)C[C@H](N(C)C)[C@H]2O)[C@](C)(O)C[C@@H](C)C(=O)[C@H](C)[C@@H](O)[C@]1(C)O [Erythromycin A, reference compound] | µg/mL | 3.12
CC[C@H]1OC(=O)[C@H](C)[C@@H](O[C@H]2C[C@@](C)(O)[C@@H](O)[C@H](C)O2)[C@H](C)[C@@H](O[C@@H]2O[C@H](C)C[C@H](N(C)C)[C@H]2O)[C@](C)(O)C[C@](C)(F)C(=O)[C@H](C)[C@@H](O)[C@]1(C)O | µg/mL | 12.5

Switching to the query record.
Challenge: For the compound CC[C@H]1OC(=O)[C@H](C)[C@@H](O[C@H]2C[C@@](C)(OC)[C@@H](O)[C@H](C)O2)[C@H](C)[C@@H](O[C@@H]2O[C@H](C)C[C@H](N(C)C)[C@H]2O)[C@](C)(O)C[C@](C)(F)C(=O)[C@H](C)[C@@H](O)[C@]1(C)O , give its measured MIC value.
Response given: 1.56
